Provide the recorded log10(IC50) for the entries that follow.
biological target: human TLR2 (Homo sapiens (Human), UniProt O60603); assay: HEK-Blue hTLR2 antagonism assay (SEAP reporter), agonist Pam3CSK4; assay type: cell-based; details: HEK-Blue hTLR2 cells; Pam3CSK4 (TLR1/2 agonist) at approx. 3×EC50; 18 h; 8-point dilutions
Sequence (O60603 21-784): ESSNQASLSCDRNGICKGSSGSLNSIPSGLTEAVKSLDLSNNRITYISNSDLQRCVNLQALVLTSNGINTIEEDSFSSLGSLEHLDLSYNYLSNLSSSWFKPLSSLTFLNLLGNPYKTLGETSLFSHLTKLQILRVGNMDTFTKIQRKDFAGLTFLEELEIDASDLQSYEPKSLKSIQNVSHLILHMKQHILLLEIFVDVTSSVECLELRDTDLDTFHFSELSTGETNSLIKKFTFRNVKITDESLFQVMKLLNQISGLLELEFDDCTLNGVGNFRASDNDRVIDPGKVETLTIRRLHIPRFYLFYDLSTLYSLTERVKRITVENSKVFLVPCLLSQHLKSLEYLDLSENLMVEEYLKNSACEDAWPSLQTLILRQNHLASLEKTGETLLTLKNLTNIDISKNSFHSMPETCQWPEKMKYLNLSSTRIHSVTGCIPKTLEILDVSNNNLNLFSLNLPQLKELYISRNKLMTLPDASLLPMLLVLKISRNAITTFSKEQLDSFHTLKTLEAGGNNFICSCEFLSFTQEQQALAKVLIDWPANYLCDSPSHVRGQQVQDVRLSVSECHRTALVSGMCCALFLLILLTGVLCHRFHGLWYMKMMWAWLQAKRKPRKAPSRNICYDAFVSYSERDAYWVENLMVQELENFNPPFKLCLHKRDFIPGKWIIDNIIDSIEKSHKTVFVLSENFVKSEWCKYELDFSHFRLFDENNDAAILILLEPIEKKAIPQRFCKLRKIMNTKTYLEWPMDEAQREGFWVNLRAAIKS
Record value = log10 of IC50 given in µM.

Recorded log10(IC50) for `O=Cc1cc(C(=O)Nc2ncc(-c3ccc(N4CCCC4)cc3)s2)cc(F)c1O` , please?
0.00

Recorded log10(IC50) for O=Cc1cc(C(=O)N2CCCC2c2ccc(N3CCCC3)cc2)cc(F)c1O (racemic) , please?
0.98

Recorded log10(IC50) for `O=Cc1cc(C(=O)Nc2ncc(N3CCN(C4CC4)CC3)s2)cc(F)c1O` , please?
0.43

Recorded log10(IC50) for `O=Cc1cc(C(=O)N2CC(c3ccc(N4CCCC4)cc3)C2)cc(F)c1O` , please?
0.58

Recorded log10(IC50) for `O=Cc1cc(C(=O)NCCCc2ccc(N3CCCC3)cc2)cc(F)c1O` , please?
0.72

Recorded log10(IC50) for `O=Cc1cc(C(=O)Nc2coc(-c3ccccc3)n2)cc(F)c1O` , please?
-0.05

Recorded log10(IC50) for `O=Cc1cc(C(=O)c2ccc(N3CCCC3)cc2)cc(F)c1O` , please?
1.27

Recorded log10(IC50) for `O=Cc1cc(COC(=O)Nc2cccc(N3CCCC3)c2)cc(F)c1O` , please?
0.64

Recorded log10(IC50) for `O=Cc1cc(C(=O)Nc2ncc(-c3ccccc3)s2)cc(F)c1O` , please?
-0.30

Recorded log10(IC50) for O=Cc1cc(C(=O)N2CCO[C@@H](c3ccc(N4CCCC4)cc3)C2)cc(F)c1O (single isomer, unassigned) , please?
0.27

Recorded log10(IC50) for `COCCOCC(=O)Oc1c(F)cc(-c2nc(-c3ccc(N4CCCC4)cc3)ns2)cc1C=O` , please?
-0.22

Recorded log10(IC50) for `O=Cc1cc(C(=O)N2CCC(c3ccc(N4CCCC4)nc3)CC2)cc(F)c1O` , please?
0.68

Recorded log10(IC50) for `O=Cc1cc(-c2nc(-c3ccc(N4CCCC4)cc3)ns2)cc(F)c1OC(=O)N1CCCC1` , please?
-0.30

Recorded log10(IC50) for `CN1CCN(/N=C/c2cc(C(=O)N3CCC(c4ccc(N5CCCC5)cc4)CC3)cc(F)c2O)CC1` , please?
-0.40

Recorded log10(IC50) for `Oc1c(F)cc(-c2nc(-c3ccc(N4CCCC4)cc3)ns2)cc1/C=N/N1CCOCC1` , please?
0.00

Recorded log10(IC50) for COCCN1C(=O)Oc2c(F)cc(-c3nc(-c4ccc(N5CCCC5)cc4)ns3)cc2C1O (centres unmarked) , please?
-0.70

Recorded log10(IC50) for `O=Cc1cc(C(=O)Nc2nc(-c3ccccc3)ns2)cc(F)c1O` , please?
0.90

====

biological target: human TLR2 (Homo sapiens (Human), UniProt O60603); test: HEK-Blue hTLR2 antagonism assay (SEAP reporter), agonist Pam2CSK4; assay type: cell-based; conditions: HEK-Blue hTLR2 cells; Pam2CSK4 (TLR2/6 agonist) at approx. 3×EC50; 18 h; 8-point dilutions
QUANTITY MEASURED: IC50 (µM)
Give the value, in units of µM, as a plain number.

Recorded IC50 for O=Cc1cc(C(=O)N2CCOC(c3cccc(N4CCCC4)c3)C2)cc(F)c1O (racemic) [Compound 150] , please?
7.5

Recorded IC50 for O=Cc1cc(C(=O)N2CCO[C@@H](c3ccc(N4CCCC4)cc3)C2)cc(F)c1O (single isomer, unassigned) [Compound 148] , please?
4.99

Recorded IC50 for C[C@H]1[C@H](c2ccc(N3CCCC3)cc2)OCCN1C(=O)c1cc(F)c(O)c(C=O)c1 (racemic) [Compound 151] , please?
16.9

Recorded IC50 for O=Cc1cc(C(=O)Nc2nc(-c3ccc(N4CCCC4)cc3)ns2)cc(F)c1O [Compound 167] , please?
1.5

Recorded IC50 for O=Cc1cc(-c2nc(-c3ccc(N4CCCC4)cc3)ns2)cc(F)c1OC(=O)N1CCOCC1 [Compound 174] , please?
1.5

Recorded IC50 for O=Cc1cc(C(=O)Nc2ccc(N3CCCC3)nn2)cc(F)c1O [Compound 92] , please?
59

Recorded IC50 for O=Cc1cc(C(=O)Nc2ncc(-c3ccccc3)s2)cc(F)c1O [Compound 4] , please?
0.9

Recorded IC50 for CN1C(=O)Oc2c(F)cc(-c3nc(-c4ccc(N5CCCC5)cc4)ns3)cc2C1O (centres unmarked) [Compound 178] , please?
1.2
